- system: human H3R (Homo sapiens)
- Construct: expressed in transfected cells; host or cells: HEK293
- Sequence (Q9Y5N1 whole entry): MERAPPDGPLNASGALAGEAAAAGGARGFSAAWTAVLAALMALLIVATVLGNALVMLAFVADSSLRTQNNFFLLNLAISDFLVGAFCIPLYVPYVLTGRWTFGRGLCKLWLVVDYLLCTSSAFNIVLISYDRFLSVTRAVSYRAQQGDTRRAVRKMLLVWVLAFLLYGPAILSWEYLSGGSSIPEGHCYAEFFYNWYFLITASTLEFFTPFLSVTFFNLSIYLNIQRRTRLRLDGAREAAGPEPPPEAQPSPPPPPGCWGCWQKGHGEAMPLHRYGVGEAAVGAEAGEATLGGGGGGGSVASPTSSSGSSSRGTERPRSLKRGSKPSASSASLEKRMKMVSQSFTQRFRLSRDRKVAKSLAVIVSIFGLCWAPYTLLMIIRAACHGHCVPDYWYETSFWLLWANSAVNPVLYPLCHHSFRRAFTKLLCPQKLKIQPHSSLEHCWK
- method description: [3H]Nα-methylhistamine radioligand binding assay in HEK293 cells stably expressing hH3R
# pKi per entry
pKi (log units): -log10 of the concentration in mol/L.

Output pKi of O=C(O)C(=O)O.O=C(c1ccc(F)cc1)c1ccc(OCCCCCN2CCCCC2)cc1 [Compound 6]
8.10

Output pKi of O=C(c1ccc(Cl)cc1)c1ccc(OCCCCCN2CCCCCC2)cc1 [Compound 29]
7.18

Consider the record given below.
Output pKi of O=C(c1ccc(F)cc1)c1ccc(OCCCCCCN2CCCCCC2)cc1 [Compound 35]
7.46
